Each entry below lists one item and its recorded GI50 value.
- Tested on: M14
- Protocol Description: NCI tumour cell line growth inhibition, 48 h
Structures can show the parent of a compound that is named as a salt. Active and inactive are the calls of the source. No stated cut-off is given here; in the data, active = GI50 up to about 1.1 µM and inactive = higher.

// below: answered compounds
INSERT INTO assay_data (compound, measured_on, endpoint, test_value) VALUES
  ('CN(C)CCOC(=O)COc1ccc(Cl)cc1 [CENTROPHENOXINE HYDROCHLORIDE]', 'M14', 'GI50', '> 100 µM (inactive)'),
  ('C[C@@H]1[C@@H](C)C(c2ccccc2)O[Si]1(C(C)(C)C)C(C)(C)C (stereo not given in full)', 'M14', 'GI50', '18.2 µM (inactive)'),
  ('CN1CCN(C(=S)N(C(=O)c2cccs2)c2ccccc2)CC1', 'M14', 'GI50', '> 100 µM (inactive)'),
  ('Cn1c(=O)c2nc(-c3ccc(Cl)cc3)oc2n(C)c1=O', 'M14', 'GI50', '> 100 µM (inactive)');

I am curious: what GI50 value has been reported for CC[C@H](CO)Nc1nc(NCc2ccccc2)c2ncn(C(C)C)c2n1 [SELICICLIB] ? 27.9 µM (inactive)

* * *

- Test system: DU-145
- Protocol Description: NCI tumour cell line growth inhibition, 48 h
The source made the active and inactive calls. Cut-off read from the data, not from the text of the source: active = GI50 up to about 1.1 µM and inactive = higher.
A correct response names exactly one class from y (active), n (inactive)

INSERT INTO assay_data (compound, assigned_label) VALUES
  ('Cc1ccc(/N=N/c2ccc(O)c(CN(C)C)c2)cc1C', 'n');

Test call, this compound: NC(=O)c1csc(C2OC(CO)C(O)C2O)n1 (stereo unspecified) n

Input CCC(=O)/C=C/c1ccccc1 n

Also NC(=S)Nc1nc(=S)[nH]c2c1SC1=N/C(=C\c3ccco3)C(=O)N12 , if possible. n

Same for C[C@@H]1[C@@H](C)C(c2ccccc2)O[Si]1(C(C)(C)C)C(C)(C)C (stereo partly specified) n

Next record, please: CO[C@@H]1C[C@H](OC(N)=O)[C@@H]2C=C[C@@H]3/C=C(C)/C=C/[C@@H](C)[C@H](/C(C)=C/[C@@H](C)NC(C)=O)OC(=O)/C=C/C=C(C)\C=C\[C@]3(C)[C@@H]2C1 [SUPERSTOLIDE B] y

Request: Cc1cc(S(=O)(=O)Nc2nc(-c3ccccn3)n[nH]2)c(S)cc1Cl n

Next compound: CC(=O)N(C(C)=O)n1c(Cc2ccc(C)cc2)nn(C(C)=O)c1=O n

Entry Cc1ccc(CCCCCOc2ccc(C3=NCCO3)cc2)s1 please n

Try this compound too: C=C(COC(=O)C(C)C)[C@H]1Oc2ccc(C(C)=O)cc2[C@@H]1OC(=O)C(C)C n

Entry CCOC(=O)Oc1ccc2c(c1)c(=O)c1c(NCCN(CC)CC)ccc3nnn2c31 please n

* * *

- Test system: NCI-H226
- Protocol Description: NCI tumour cell line growth inhibition, 48 h
The source made the active and inactive calls. Rule as the data show it: active = GI50 up to about 1.1 µM and inactive = higher.
// classify into active, inactive

INSERT INTO results (compound, assigned_label) VALUES
  ('O=C(CCCN1CCC2(CC1)OC(=O)N(c1ccccc1)C2=O)c1ccccc1', 'inactive'),
  ('O=C(OC1C#CCSCC#C/C=C\1)c1ccc2c(c1)C(=O)c1ccccc1C2=O (stereo unspecified)', 'inactive'),
  ('CC(C)C[S+]1C2=C(CC(C)(C)CC2=O)[N-]c2ccccc21 (stereo unspecified)', 'inactive'),
  ('COc1ccc2nc3cccc([N+](=O)[O-])c3c(NCCO)c2c1', 'active'),
  ('C=CCOC(=O)C1=C(CCC[C@@H](C)O[Si](C)(C)C(C)(C)C)N=C(N)N2[C@H](CCO)CC[C@@H]12', 'inactive');

I'd appreciate the recorded outcome for O=C(O)c1cscc1Cc1cccs1 from this test. inactive

Follow-up entry: C/C=C(\C)c1cc(O)c(C)c2c1Oc1cc(O)c(Cl)c(C)c1C(=O)O2 inactive

Please answer likewise for NC(=S)Nc1nc(=S)[nH]c2c1SC1=N/C(=C\c3ccco3)C(=O)N12 inactive

Another compound to look at: CCCCC#C[I+]c1ccccc1 inactive

Try this compound too: Cc1cc(S(=O)(=O)Nc2nnc3c(Cl)cc(C(F)(F)F)cn23)c(S)cc1Cl inactive

Subsequent entry: CCOC(=O)Oc1ccc2c(c1)c(=O)c1c(NCCN(CC)CC)ccc3nnn2c31 active
